Listing: IC50 of selected compounds
target: human MetAP2 enzyme (Homo sapiens, UniProt P50579); assay: MetAP2 enzyme assay, enzyme complexed with manganese ions; conditions: MetAP2 Mn pIC50, MetAP2 enzyme complexed with manganese ions; Met-AMC substrate at Km
Sequence (P50579 whole entry): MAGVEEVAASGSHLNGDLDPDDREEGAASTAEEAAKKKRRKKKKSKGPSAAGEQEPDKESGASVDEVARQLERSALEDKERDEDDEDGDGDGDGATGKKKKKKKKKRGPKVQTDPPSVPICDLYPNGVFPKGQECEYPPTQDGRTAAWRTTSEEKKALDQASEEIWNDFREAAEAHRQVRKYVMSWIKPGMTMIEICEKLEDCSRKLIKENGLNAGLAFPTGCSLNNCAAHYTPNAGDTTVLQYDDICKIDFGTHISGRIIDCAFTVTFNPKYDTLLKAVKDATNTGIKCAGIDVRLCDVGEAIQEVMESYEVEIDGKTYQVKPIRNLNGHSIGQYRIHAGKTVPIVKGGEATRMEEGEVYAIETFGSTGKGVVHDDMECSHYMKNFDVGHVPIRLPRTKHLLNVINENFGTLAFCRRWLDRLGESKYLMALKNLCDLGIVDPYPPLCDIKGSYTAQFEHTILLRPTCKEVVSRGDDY
PARAMETER: IC50 (nM)

Cc1nc(C(=O)NCCO)ccc1-c1cc(C(F)(F)F)cc2[nH]ncc12
6.31
O=C(NCCO)c1c[nH]c(=O)c(-c2cc(C(F)(F)F)cc3[nH]ncc23)c1
7.94
O=C(O)Cn1cc(-c2cc(C(F)(F)F)cc3[nH]ncc23)cn1
39.8
COc1ccc(-c2cc(C(F)(F)F)cc3[nH]ncc23)c(C(N)=O)n1
20
FC(F)(F)c1cc(-c2c[nH]c3ncncc23)c2cn[nH]c2c1
15.8
CS(=O)(=O)Nc1ccccc1-c1cc(C(F)(F)F)cc2[nH]ncc12
5.01
CN(C)C(=O)c1ccccc1-c1cc(C(F)(F)F)cc2[nH]ncc12
50.1
COc1ccc(OC)c(-c2cc(C(F)(F)F)cc3[nH]ncc23)c1
3.16
Cc1noc(C)c1-c1cc(C(F)(F)F)cc2[nH]ncc12
7.94
Cn1cnc2ccc(-c3cc(C(F)(F)F)cc4[nH]ncc34)cc21
10
FC(F)(F)c1cc(-c2cnc3[nH]ncc3c2)c2cn[nH]c2c1
5.01
FC(F)(F)c1cc(-c2cnc3cnccn23)c2cn[nH]c2c1
126
CS(=O)(=O)c1cncc(-c2cc(C(F)(F)F)cc3[nH]ncc23)c1
10
O=C(NCCO)c1ccc(F)c(-c2cc(C(F)(F)F)cc3[nH]ncc23)c1
7.94
CN1CCN(C(=O)c2c[nH]c(=O)c(-c3cc(C(F)(F)F)cc4[nH]ncc34)c2)CC1
6.31
COC(=O)c1c[nH]c(=O)c(-c2cc(C(F)(F)F)cc3[nH]ncc23)c1
10
Cc1c(-c2cc(C(F)(F)F)cc3[nH]ncc23)ccc2nnnn12
3.98
Cn1ncc2ccc(-c3cc(C(F)(F)F)cc4[nH]ncc34)cc21
12.6
